Each recorded value in this set is attributed to BigSolDB 2.1.

COND: in DMSO, 313.15 K

[
  {
    "SMILES_RECORD": "C=C1C[C@]23C[C@@]1(O)CC[C@H]2[C@@]12C=C[C@H](O)[C@@](C)(C(=O)O1)[C@H]2[C@@H]3C(=O)O",
    "solubility (mole fraction)": 0.291
  }
]

----------
COND: in chloroform, 278.15 K

[
  {
    "SMILES_RECORD": "C=C1C[C@]23C[C@@]1(O)CC[C@H]2[C@@]12C=C[C@H](O)[C@@](C)(C(=O)O1)[C@H]2[C@@H]3C(=O)O",
    "solubility (mole fraction)": 0.0222
  }
]
